Experiment: Tmax in C57BL/6 mouse tumor xenografted mouse MC38 cells at 1.88 mg/kg,iv and measured after 72 hrs by LC-MS/MS analysis
Assay type: ADME, organism-based, Neoplasm, MC-38
Property Measured: Tmax (h)
Report only the number, with the unit h understood.

**Q:** Please give the documented Tmax of N#Cc1cnc2ccc(-c3c(-c4ccc(F)c(Cl)c4)ncn3CCO)nn12
**A:** 1

* * *

Experiment: AUC (0 to 72 hrs) in C57BL/6 mouse xenografted with mouse MC38 cells at 3.75 mg/kg,iv and measured after 4 weeks by LC-MS/MS analysis
Assay type: ADME, organism-based, MC-38
Parameters: dose 3.75 mg/kg, time 4 weeks, route iv
Conditions: in vivo
Property Measured: AUC(0-t) at 672 h (µM·h)
Write the number in µM·h without appending the unit.

**Q:** Input N#Cc1cnc2ccc(-c3c(-c4ccc(F)c(Cl)c4)ncn3CCO)nn12 , output reported AUC(0-t) at 672 h.
**A:** 39

* * *

Reported Cmax values for the following compounds.
Experiment: Prodrug conversion in blood of C57BL/6 mouse xenografted mouse MC38 cells assessed as BMS-986260 Cmax at 8 mg/kg,iv and measured after 72 hrs by LC-MS/MS analysis
Assay type: ADME, organism-based, MC-38
Parameters: dose 8 mg/kg, time 72 hrs, route iv
Details: in vivo
Numbered stars: 1 amine (or outer) side, 2 acyl side, 3 side chain; on linkers, the order of the positions; unused ones are H or OH. Square brackets hold non-standard residues; d marks the D form. Peptide text beside a SMILES is read from it. * marks the point of attachment. X1 = N#Cc1cnc2ccc(-c3c(-c4ccc(F)c(Cl)c4)ncn3CCOCN*)nn12; C18 diacid = O=C(O)CCCCCCCCCCCCCCCCC(=O)*; γGlu = O=C(O)[C@H](CCC(=O)[*:2])N[*:1]; PABC = O=C(OCc1ccc(N[*:1])cc1)[*:2]; AEEA = NCCOCCOCC(=O)O
Write down the numeric answer in nM and omit the unit.

CC(C)C[C@H](NC(=O)COCCOCCNC(=O)COCCOCCNC(=O)CC[C@H](NC(=O)CC[C@H](NC(=O)CC[C@H](NC(=O)CCCCCCCCCCCCCCCCC(=O)O)C(=O)O)C(=O)O)C(=O)O)C(=O)N[C@@H](CO)C(=O)NCC(=O)N[C@@H](CCCCN)C(=O)Nc1ccc(COC(=O)NCOCCn2cnc(-c3ccc(F)c(Cl)c3)c2-c2ccc3ncc(C#N)n3n2)cc1 ({C18 diacid-γGlu-γGlu-γGlu-AEEA-AEEA}-LSGK[PABC]-X1) :: 140

**Q:** Entry CC(C)C[C@H](NC(=O)COCCOCCNC(=O)COCCOCCNC(=O)CC[C@H](NC(=O)CC[C@H](NC(=O)CCCCCCCCCCCCCCCCC(=O)O)C(=O)O)C(=O)O)C(=O)N[C@@H](CO)C(=O)NCC(=O)N[C@@H](CCCCN)C(=O)Nc1ccc(COC(=O)NCOCCn2cnc(-c3ccc(F)c(Cl)c3)c2-c2ccc3ncc(C#N)n3n2)cc1 ({C18 diacid-γGlu-γGlu-AEEA-AEEA}-LSGK[PABC]-X1) needs its Cmax filled in; supply it.
**A:** 120

* * *

Test: AUC (0 to 72 hrs) in C57BL/6 mouse blood xenografted mouse MC38 cells at 1.88 mg/kg,iv and measured after 72 hrs by LC-MS/MS analysis
Format: ADME, organism-based, MC-38
Design: dose 1.88 mg/kg, time 72 hrs, route iv
Property Measured: AUC(0-t) at 72 h (µM·h)
Please state the figure in µM·h; there is no need to write the unit.

**Q:** Tell us which AUC(0-t) at 72 h value is on record for N#Cc1cnc2ccc(-c3c(-c4ccc(F)c(Cl)c4)ncn3CCO)nn12
**A:** 5.8

* * *

Entries and their remaining at 24 h
Experiment: Stability in mouse plasma assessed as parent compound remaining after 24 hrs by HPLC-MS analysis
Assay type: ADME, cell-free
Settings: read-out: Stability
Numbered stars: 1 amine (or outer) side, 2 acyl side, 3 side chain; on linkers, the order of the positions; unused ones are H or OH. Square brackets hold non-standard residues; d marks the D form. Peptide text beside a SMILES is read from it. * marks the point of attachment. X1 = N#Cc1cnc2ccc(-c3c(-c4ccc(F)c(Cl)c4)ncn3CCOCN*)nn12; C18 diacid = O=C(O)CCCCCCCCCCCCCCCCC(=O)*; C16 diacid = O=C(O)CCCCCCCCCCCCCCC(=O)*; γGlu = O=C(O)[C@H](CCC(=O)[*:2])N[*:1]; PABC = O=C(OCc1ccc(N[*:1])cc1)[*:2]; AEEA = NCCOCCOCC(=O)O
Hi! Could you send only the number? It should be in %, unit omitted.

Examples with answers:
CC(C)C[C@H](NC(=O)COCCOCCNC(=O)CC[C@H](NC(=O)CCCCCCCCCCCCCCCCC(=O)O)C(=O)O)C(=O)N[C@@H](CO)C(=O)NCC(=O)N[C@@H](CCCCN)C(=O)Nc1ccc(COC(=O)NCOCCn2cnc(-c3ccc(F)c(Cl)c3)c2-c2ccc3ncc(C#N)n3n2)cc1 ({C18 diacid-γGlu-AEEA}-LSGK[PABC]-X1) :: 79
CC(=O)N[C@@H](CC(C)C)C(=O)N[C@@H](CO)C(=O)NCC(=O)N[C@@H](CCCCN)C(=O)Nc1ccc(COC(=O)NCOCCn2cnc(-c3ccc(F)c(Cl)c3)c2-c2ccc3ncc(C#N)n3n2)cc1 (Ac-LSGK[PABC]-X1) :: 6
CC(C)C[C@H](NC(=O)COCCOCCNC(=O)COCCOCCNC(=O)CC[C@H](NC(=O)CC[C@H](NC(=O)CC[C@H](NC(=O)CCCCCCCCCCCCCCCCC(=O)O)C(=O)O)C(=O)O)C(=O)O)C(=O)N[C@@H](CO)C(=O)NCC(=O)N[C@@H](CCCCN)C(=O)Nc1ccc(COC(=O)NCOCCn2cnc(-c3ccc(F)c(Cl)c3)c2-c2ccc3ncc(C#N)n3n2)cc1 ({C18 diacid-γGlu-γGlu-γGlu-AEEA-AEEA}-LSGK[PABC]-X1) :: 96

**Q:** Please report the measured remaining at 24 h for CC(C)C[C@H](NC(=O)COCCOCCNC(=O)COCCOCCNC(=O)CC[C@H](NC(=O)CCCCCCCCCCCCCCC(=O)O)C(=O)O)C(=O)N[C@@H](CO)C(=O)NCC(=O)N[C@@H](CCCCN)C(=O)Nc1ccc(COC(=O)NCOCCn2cnc(-c3ccc(F)c(Cl)c3)c2-c2ccc3ncc(C#N)n3n2)cc1 ({C16 diacid-γGlu-AEEA-AEEA}-LSGK[PABC]-X1)
**A:** 54

**Q:** Respond only with remaining at 24 h recorded for CC(C)C[C@H](NC(=O)COCCOCCNC(=O)COCCOCCNC(=O)COCCOCCNC(=O)CC[C@H](NC(=O)CCCCCCCCCCCCCCCCC(=O)O)C(=O)O)C(=O)N[C@@H](CO)C(=O)NCC(=O)N[C@@H](CCCCN)C(=O)Nc1ccc(COC(=O)NCOCCn2cnc(-c3ccc(F)c(Cl)c3)c2-c2ccc3ncc(C#N)n3n2)cc1 ({C18 diacid-γGlu-AEEA-AEEA-AEEA}-LSGK[PABC]-X1)
**A:** 91

**Q:** Return value of remaining at 24 h for input CC(C)C[C@H](NC(=O)COCCOCCNC(=O)COCCOCCNC(=O)CC[C@H](NC(=O)CC[C@H](NC(=O)CCCCCCCCCCCCCCCCC(=O)O)C(=O)O)C(=O)O)C(=O)N[C@@H](CO)C(=O)NCC(=O)N[C@@H](CCCCN)C(=O)Nc1ccc(COC(=O)NCOCCn2cnc(-c3ccc(F)c(Cl)c3)c2-c2ccc3ncc(C#N)n3n2)cc1 ({C18 diacid-γGlu-γGlu-AEEA-AEEA}-LSGK[PABC]-X1) , no commentary.
**A:** 92

**Q:** Please report remaining at 24 h for the following molecule: CC(C)C[C@H](NC(=O)COCCOCCNC(=O)COCCOCCNC(=O)CC[C@H](NC(=O)CCCCCCCCCCCCCCCCC(=O)O)C(=O)O)C(=O)N[C@@H](CO)C(=O)NCC(=O)N[C@@H](CCCCN)C(=O)Nc1ccc(COC(=O)NCOCCn2cnc(-c3ccc(F)c(Cl)c3)c2-c2ccc3ncc(C#N)n3n2)cc1 ({C18 diacid-γGlu-AEEA-AEEA}-LSGK[PABC]-X1)
**A:** 79

**Q:** Quickly give me recorded remaining at 24 h for CC(C)C[C@H](NC(=O)CC[C@H](NC(=O)CCCCCCCCCCCCCCCCC(=O)O)C(=O)O)C(=O)N[C@@H](CO)C(=O)NCC(=O)N[C@@H](CCCCN)C(=O)Nc1ccc(COC(=O)NCOCCn2cnc(-c3ccc(F)c(Cl)c3)c2-c2ccc3ncc(C#N)n3n2)cc1 ({C18 diacid-γGlu}-LSGK[PABC]-X1)
**A:** 84

* * *

Assay: Prodrug conversion in heart of C57BL/6 mouse xenografted mouse MC38 cells assessed as BMS-986260 Cmax at 8 mg/kg,iv and measured after 48 hrs by LC-MS/MS analysis
Type: ADME, organism-based, MC-38
Design: time 48 hrs, dose 8 mg/kg, route iv
Conditions: in vivo
Numbered stars: 1 amine (or outer) side, 2 acyl side, 3 side chain; on linkers, the order of the positions; unused ones are H or OH. Square brackets hold non-standard residues; d marks the D form. Peptide text beside a SMILES is read from it. * marks the point of attachment. X1 = N#Cc1cnc2ccc(-c3c(-c4ccc(F)c(Cl)c4)ncn3CCOCN*)nn12; C18 diacid = O=C(O)CCCCCCCCCCCCCCCCC(=O)*; γGlu = O=C(O)[C@H](CCC(=O)[*:2])N[*:1]; PABC = O=C(OCc1ccc(N[*:1])cc1)[*:2]; AEEA = NCCOCCOCC(=O)O
Property Measured: Cmax (nM)
Use nM as the unit, but write only the number.

**Q:** Give reported Cmax value for CC(C)C[C@H](NC(=O)COCCOCCNC(=O)COCCOCCNC(=O)CC[C@H](NC(=O)CCCCCCCCCCCCCCCCC(=O)O)C(=O)O)C(=O)N[C@@H](CO)C(=O)NCC(=O)N[C@@H](CCCCN)C(=O)Nc1ccc(COC(=O)NCOCCn2cnc(-c3ccc(F)c(Cl)c3)c2-c2ccc3ncc(C#N)n3n2)cc1 ({C18 diacid-γGlu-AEEA-AEEA}-LSGK[PABC]-X1)
**A:** 300

Origin of values: ChEMBL document CHEMBL5260852
